# STUDY_CONDITIONS: in ethanol, 308.2 K
ASSAY_METRIC: solubility (mole fraction)
Reply with the value as a number alone.

[ask] Form field: reported solubility (mole fraction) of `C=C1CCC[C@]2(C)C[C@]3(O)OC(=O)C(C)=C3C[C@@H]12`
[reply] 0.0113

---

# STUDY_CONDITIONS: in ethyl acetate, 313.2 K
ASSAY_METRIC: solubility (mole fraction)
Reply with the value as a number alone.

[ask] Form field: reported solubility (mole fraction) of `C=C1CCC[C@]2(C)C[C@]3(O)OC(=O)C(C)=C3C[C@@H]12`
[reply] 0.0271
